# TEST TARGET: PKR dsRBD (P20) (UniProt P19525 1-184)
# Sequence (P19525 1-184): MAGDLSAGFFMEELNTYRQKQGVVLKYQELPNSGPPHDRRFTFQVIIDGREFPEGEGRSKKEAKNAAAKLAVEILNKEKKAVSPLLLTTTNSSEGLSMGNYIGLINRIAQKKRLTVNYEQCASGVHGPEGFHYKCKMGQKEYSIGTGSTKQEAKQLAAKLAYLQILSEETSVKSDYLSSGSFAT
# TEST SUMMARY: EMSA; 0.1 mg/mL herring sperm DNA competitor; Hill 2.9; 25 mM Hepes-KOH pH 7.5, 10 mM NaCl, 5% glycerol, 5 mM DTT, 0.1 mM EDTA, 0.1 mg/mL tRNAPhe or herring sperm DNA; room temperature 10 min; 10% native gel, 0.5x TB, 16 C
# CONDITION LABEL: protein: recombinant; chain copies: 2; label: 5'-32P; tRNA fold, monomer, ~20 bp
REPORTED ENDPOINT: Kd
The answer consists of two parts: a number and, after it, its unit.

Q: Entry T7 mt-tRNALeu WT (monomer) (structured_RNA, none (unmodified transcript)) RNA: UUAAGAUGGCAGAGCCCGGUAAUCGCAUAAAACUUAAAACUUUACAGUCAGAGGUUCAAUUCCUCUUCUUAACACCA needs its Kd filled in; supply it.
Result: 5.1 µM
